Test system: SKBR3 cells
Assay: SKBR3 Cell Viability Assay
Assay type: cell-based
Details: 72 hours, CellTiter Glo, read-out: MCL1 CV SKBR3 EC50
pEC50: −log10 of the molar value.
reported-metric: pEC50

Consider the reported pEC50 for these molecules:
{"columns": ["molecule", "system-tested", "reported-metric", "measured-value"],
 "data": [
  ["CC[C@H]1C/C=C/[C@H](OC)[C@@H]2CC[C@H]2CN2C[C@@]3(CCCc4cc(Cl)ccc43)COc3ccc(cc32)C(=O)N=[S@](=O)(NC(=O)NC2CC2)C1", "SKBR3 cells", "pEC50", 6.63],
  ["COc1nn(C)cc1C(=O)N[S@@]1(=O)=NC(=O)c2ccc3c(c2)N(C[C@@H]2CC[C@H]2/C=C/[C@@H]2OCCO[C@@H]2[C@H](C)C1)C[C@@]1(CCCc2cc(Cl)ccc21)CO3", "SKBR3 cells", "pEC50", 6.00],
  ["CC[C@@H]1CC/C=C/[C@H](OC)[C@@H]2CC[C@H]2CN2C[C@@]3(CCCc4cc(Cl)ccc43)COc3ccc(cc32)C(=O)/[N+]([O-])=[S@]\\1NC(=O)c1cn(C)nc1OC", "SKBR3 cells", "pEC50", 6.90]
]}

1 = Cn1nccc1CCC(=O)NS1(=O)=NC(=O)c2ccc3c(c2)N(C[C@@H]2CC[C@H]2[C@@H](OCCN2CCOCC2)/C=C/CCC1)C[C@@]1(CCCc2cc(Cl)ccc21)CO3 (some centres unmarked)
2 = CO[C@H]1/C=C/[C@H](OC)CC[S@@](=O)(Nc2ncnc3nn(C)cc23)=NC(=O)c2ccc3c(c2)N(C[C@@H]2CC[C@H]21)C[C@@]1(CCCc2cc(Cl)ccc21)CO3
Sorting ascending by pEC50, which comes first: 1 or 2 ? Could you answer with the label of the item you picked?
1
